# Target Or Test System: human CXCR3 (Homo sapiens)
# Construct: expressed in transfected cells; host or cells: CHO cells (membrane preparation)
# Assay Overview: [35S]GTPγS exchange assay, CXCR3 receptor inhibition (hI-TAC-induced GTPγS-binding)
# Format: biochemical
# Measurement Conditions: -log IC50 (molar) inhibiting 50% of specific I-TAC-induced GTPγS-binding; membranes of human CXCR3-transfected CHO cells; read-out: pIC50 (converted)
Quantity Measured: IC50 (nM)

O=C1CCC(c2ccc(F)cc2)(C2CCN(Cc3ccc(Cl)c(Cl)c3)CC2)CN1 (centres unmarked) [Compound 141] ... 1580
O=C1CCC(c2ccc(F)cc2)(C2CCN(Cc3ccc(OC(F)F)cc3)CC2)CN1 (centres unmarked) [Compound 147] ... 3980
COc1ccc(C2(C3CCN(Cc4ccc(Cl)cc4)CC3)CCC(=O)NC2=O)cc1 (centres unmarked) [Compound 69] ... 3160
O=C1CCC(c2ccccc2)(C2CCN(Cc3ccc(Cl)c(Cl)c3)CC2)CN1 (centres unmarked) [Compound 140] ... 794
O=C1CCC(c2cccc(Cl)c2)(C2CCN(Cc3ccc(Br)cc3F)CC2)C(=O)N1 (centres unmarked) [Compound 95] ... 1580
COc1cccc(C2(C3CCN(Cc4ccc(Cl)cc4)CC3)CCC(=O)NC2=O)c1 (centres unmarked) [Compound 67] ... 1000

a = CN1C(=O)CCC(c2ccccc2)(C2CCN(Cc3ccc(C(F)(F)F)cc3)CC2)C1=O (centres unmarked) [Compound 131]
b = CN1CCN(C(=O)c2cccc(C3(C4CCN(Cc5ccc(Br)cc5)CC4)CCC(=O)NC3=O)c2)CC1 (centres unmarked) [Compound 34]
## Task Of a and b , which shows the smaller IC50 value? Refer to your chosen item by its label in the answer.
## Result b

* * *

# Target Or Test System: human CXCR3 (Homo sapiens)
# Construct: expressed in transfected cells; host or cells: CHO cells (membrane preparation)
# Sequence (P49682 1-368): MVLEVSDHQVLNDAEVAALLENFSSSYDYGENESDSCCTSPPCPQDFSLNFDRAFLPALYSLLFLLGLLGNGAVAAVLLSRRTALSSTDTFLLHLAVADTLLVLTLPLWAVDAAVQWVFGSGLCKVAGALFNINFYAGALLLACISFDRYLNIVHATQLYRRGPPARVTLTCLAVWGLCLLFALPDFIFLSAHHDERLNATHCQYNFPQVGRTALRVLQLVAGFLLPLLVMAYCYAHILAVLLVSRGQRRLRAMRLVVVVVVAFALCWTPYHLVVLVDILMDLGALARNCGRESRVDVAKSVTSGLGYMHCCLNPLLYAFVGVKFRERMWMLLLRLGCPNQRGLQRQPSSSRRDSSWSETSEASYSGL
# Assay Overview: [35S]GTPγS exchange assay, CXCR3 receptor inhibition (hI-TAC-induced GTPγS-binding)
# Assay type: biochemical
# Measurement Conditions: -log IC50 (molar) inhibiting 50% of specific I-TAC-induced GTPγS-binding; membranes of human CXCR3-transfected CHO cells
Quantity Measured: pIC50

O=C1CCC(c2ccccn2)(C2CCN(Cc3ccc(Br)cc3)CC2)C(=O)N1 (centres unmarked) ... 6.3
COCCN1C(=O)CCC(c2ccccc2)(C2CCN(Cc3ccc(Br)cc3)CC2)C1=O (centres unmarked) ... 5.7
O=C1CCC(c2cccc(O)c2)(C2CCN(Cc3ccc(Br)cc3)CC2)C(=O)N1 (centres unmarked) ... 6.0
NC(=O)c1cccc(C2(C3CCN(Cc4ccc(Br)cc4)CC3)CCC(=O)NC2=O)c1 (centres unmarked) ... 5.5
CNC(=O)c1cccc(C2(C3CCN(Cc4ccc(Br)cc4)CC3)CCC(=O)NC2=O)c1 (centres unmarked) ... 5.5
O=C1NCCCC1(c1ccccc1)C1CCN(Cc2ccc(Br)cc2)CC1 (centres unmarked) ... 5.8
CSCN1C(=O)CCC(c2ccccc2)(C2CCN(Cc3ccc(Br)cc3)CC2)C1=O (centres unmarked) ... 6.0
CC(C)N1C(=O)CCC(c2ccccc2)(C2CCN(Cc3ccc(Br)cc3)CC2)C1=O (centres unmarked) ... 5.3
CN1C(=O)CCC(c2ccccc2)(C2CCN(Cc3ccc(Br)cc3)CC2)C1=O (centres unmarked) ... 5.6
O=C1CCC(c2cccc(C(=O)O)c2)(C2CCN(Cc3ccc(Br)cc3)CC2)C(=O)N1 (centres unmarked) ... 6.2
O=C1CCC(c2ccncc2)(C2CCN(Cc3ccc(Br)cc3)CC2)C(=O)N1 (centres unmarked) ... 6.2
